# System: HEK-293T
# protocol notes: Multiplex assay against HEK293T
# Format: toxicity, cell-based
# setup conditions: human, 12 h, 1 µM, compound concentration 1 uM, replicate 1
quantity name: Population Apoptotic (%)
Numbers only, in %.

Some solved cases for reference:
COc1cc2c(NC3CCN(C(C)C)CC3)nc(N3CCC(F)(F)CC3)nc2cc1OCCCN1CCCC1    67
O=C(O)c1ccc2cc(-c3ccc(O)c(C45CC6CC(CC(C6)C4)C5)c3)ccc2c1 [O-DEMETHYLATED ADAPALENE]    35
CCOc1cc(N2CCC(O)CC2)ccc1Nc1ncc2c(n1)N(C1CCCC1)CCC(=O)N2C    17
Cc1cc2c(cc1N1C(=O)c3cccc4c(CCCO)ccc(c34)C1=O)n(C)c(=O)n2C    38
COc1cc(N2CCC(N(C)C)CC2)ccc1Nc1ncc(Cl)c(Nc2ccccc2P(C)(C)=O)n1    16
Nc1nc2c(c(N3CCNCC3)n1)CCC1=C2[C@@H]2CCCC[C@@H]2O1    34

Please report Population Apoptotic (%) for every entry that follows.
1. COc1cc2c(Nc3ccc(NC(=O)c4ccccc4)cc3)ncnc2cc1OCCCN1CCOCC1
2. CCOc1cc2ncc(C#N)c(Nc3ccc(OCc4cccc(F)c4)c(Cl)c3)c2cc1NC(=O)/C=C/CN(C)C [HKI-357]

Result ::
25
18
